target: Serine/threonine-protein kinase haspin (Homo sapiens) (UniProt Q8TF76); conditions: at 1 µM
Sequence (Q8TF76 whole entry): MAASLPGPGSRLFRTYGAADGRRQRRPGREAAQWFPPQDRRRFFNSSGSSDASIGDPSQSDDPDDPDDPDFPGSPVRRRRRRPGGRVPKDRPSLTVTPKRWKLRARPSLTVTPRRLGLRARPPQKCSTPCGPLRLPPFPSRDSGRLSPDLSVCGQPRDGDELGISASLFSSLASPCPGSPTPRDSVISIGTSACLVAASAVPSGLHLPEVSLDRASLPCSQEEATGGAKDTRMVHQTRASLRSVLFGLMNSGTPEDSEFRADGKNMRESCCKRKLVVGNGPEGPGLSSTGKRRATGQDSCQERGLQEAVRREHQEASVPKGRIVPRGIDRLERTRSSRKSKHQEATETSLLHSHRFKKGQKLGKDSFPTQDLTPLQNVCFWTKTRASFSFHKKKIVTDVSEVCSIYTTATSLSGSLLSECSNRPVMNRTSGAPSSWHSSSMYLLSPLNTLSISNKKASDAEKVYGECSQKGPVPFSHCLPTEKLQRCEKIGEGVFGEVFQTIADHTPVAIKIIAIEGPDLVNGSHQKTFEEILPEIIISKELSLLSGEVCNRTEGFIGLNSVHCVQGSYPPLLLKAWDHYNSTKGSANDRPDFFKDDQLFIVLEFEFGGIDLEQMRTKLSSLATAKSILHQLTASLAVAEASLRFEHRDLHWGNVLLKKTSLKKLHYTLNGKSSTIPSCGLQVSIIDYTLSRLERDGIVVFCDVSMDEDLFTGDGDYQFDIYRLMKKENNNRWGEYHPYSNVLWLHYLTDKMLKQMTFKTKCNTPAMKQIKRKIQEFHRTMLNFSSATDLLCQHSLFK
Mark Yes for reported residual activity of 80% or greater; mark No for anything smaller.

The examples below pair each entry with its known result.
Nc1cccc(-c2cc3c(Oc4cccc(O)c4)ncnc3[nH]2)c1: Yes
COc1cc2ncnc(Nc3ccc(O)c(Br)c3)c2cc1OC: No
O=Nc1c(-c2c(O)[nH]c3ccccc23)[nH]c2ccccc12: No
Oc1ccc(Nc2nc(-c3ccc(Cl)cc3)cs2)cc1: Yes
Cc1nc2cc3nc(-c4cccs4)cnc3cc2n1C: Yes

--- query ---
### Prompt Please tell me: is the compound O=C1NC(=O)c2c1c1c3ccccc3[nH]c1c1[nH]c3cc(Br)ccc3c21 at or over 80% in terms of residual activity?
### Response Yes
